Just for reference, patent US8952024B2 is where these values come from.

# Tested on: kochia (Kochia scoparia)
# method.description: Test B pre-/postemergence plant response
# Format: in vivo
# condition.set: Postemergence, 125 g ai/ha; scale 0 to 100 (0 no effect, 100 complete control)
The following compounds are shown together with reported Plant response rating, Kochia values.
Please give only the number in your answer, with no unit.

INSERT INTO assay_data (compound, result) VALUES
  ('O=C1CCCC(O)=C1C(=O)c1cnc(-c2ccsc2)n(CC2CCCO2)c1=O (stereo not drawn)', 80),
  ('CCCn1c(-c2cc(Cl)cc(Cl)c2)ncc(C(=O)C2=C(O)CCCC2=O)c1=O', 98),
  ('COCCn1c(-c2cccs2)ncc(C(=O)C2=C(O)CCCC2=O)c1=O', 98),
  ('Cc1ccc(-n2c(-c3cc(F)cc(F)c3)ncc(C(=O)C3=C(O)CCCC3=O)c2=O)cc1', 75),
  ('CCCc1ncc(C(=O)C2=C(O)CCCC2=O)c(=O)n1-c1ccccc1', 100);

Data request, read-out Plant response rating, Kochia, for O=C1CCCC(O)=C1C(=O)c1cnc(-c2ccsc2)n(C2CCCCC2)c1=O 100

----------
# Tested on: ducksalad (Heteranthera limosa)
# method.description: Test B flooded paddy test
# Assay type: in vivo
# condition.set: Flood (flooded paddy test), 125 g ai/ha; scale 0 to 100, 0 is no effect, 100 is complete control; 13 to 15 days
The following compounds are shown together with reported Plant response rating, Ducksalad values.
Please give only the number in your answer, with no unit.

Here are 4 compounds together with their reported answers.
INSERT INTO assay_data (compound, result) VALUES
  ('CCCn1c(-c2ccco2)ncc(C(=O)C2=C(O)C3CCC(C3)C2=O)c1=O (centres unmarked) [Compound 230]', 0),
  ('CCn1c(-c2cccc(F)c2)ncc(C(=O)C2=C(O)CCCC2=O)c1=O [Compound 124]', 0),
  ('CCn1c(-c2cccc(F)c2)ncc(C(=O)C2=C(O)C3CCC(C3)C2=O)c1=O (centres unmarked) [Compound 236]', 60),
  ('COc1ccc(-n2c(-c3cccc(C)c3)ncc(C(=O)C3=C(O)CCCC3=O)c2=O)cc1 [Compound 212]', 90);

Pending compound:
Plant response rating, Ducksalad of O=C1CCCC(O)=C1C(=O)c1cnc(-c2ccccc2)n(C2CC2)c1=O [Compound 90] on ducksalad (Heteranthera limosa)? 80

----------
# Test system: umbrella sedge (Cyperus difformis)
# method.description: Test B flooded paddy test
# Format: in vivo
# condition.set: 250 g ai/ha; flooded paddy test; visual rating on 0 to 100 scale (0 no effect, 100 complete control) after 13 to 15 days
experimental.readout: Plant response rating, Flood, Sedge, Umbrella
Please give only the number in your answer, with no unit.

Here are 3 compounds together with their reported answers.
INSERT INTO assay_data (test_smiles, study_target, result) VALUES
  ('Cc1cc(Cl)ccc1-n1c(-c2ccccc2)ncc(C(=O)C2=C(O)CCCC2=O)c1=O', 'umbrella sedge (Cyperus difformis)', 80),
  ('Cc1ccccc1-n1c(-c2cccc(Br)c2)ncc(C(=O)C2=C(O)CCCC2=O)c1=O', 'umbrella sedge (Cyperus difformis)', 80),
  ('COc1ccc(-n2c(-c3cccc(C)c3)ncc(C(=O)C3=C(O)CCCC3=O)c2=O)cc1', 'umbrella sedge (Cyperus difformis)', 95);

Data request, read-out Plant response rating, Flood, Sedge, Umbrella, for Cc1ccc(F)cc1-n1c(-c2cc(F)cc(F)c2)ncc(C(=O)C2=C(O)CCCC2=O)c1=O 90

Continue with O=C1CCCC(O)=C1C(=O)c1cnc(-c2ccsc2)n(C2CCCCC2)c1=O 85

Continue with Cc1cccc(-n2c(-c3cccc(Cl)c3)ncc(C(=O)C3=C(O)CCCC3=O)c2=O)c1 85

Continue with O=C1CCCC(O)=C1C(=O)c1cnc(-c2ccc(F)c(F)c2)n(C2CCCCC2)c1=O 80

Continue with CCCn1c(-c2ccccc2F)ncc(C(=O)C2=C(O)CCCC2=O)c1=O 65
